All figures here come from the RNAGym collection of RNA variant scans (doi:10.1073/pnas.2313332121).

B1: TPR 5TU (parent)
chain: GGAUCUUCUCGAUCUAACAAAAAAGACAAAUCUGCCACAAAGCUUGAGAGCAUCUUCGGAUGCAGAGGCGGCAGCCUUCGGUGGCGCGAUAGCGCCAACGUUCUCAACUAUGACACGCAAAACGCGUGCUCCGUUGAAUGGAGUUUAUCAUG

Variants of: B1
procedureText: polymerase ribozyme fitness, log enrichment relative to wild type (log ratio); higher = more active; in vitro selection for triplet polymerase activity
This sample holds only a part of the variants without activity.
Would you kindly list polymerase ribozyme fitness (log ratio) for each of these variants?

C10U A12C C54A C85U C108U: ≤ -4.2

// each variant listed below needs its polymerase ribozyme fitness (log ratio)
1. U56G G71C C85U C116A
2. G42A G62C C116G C125U A142U A150C

Result block:
1: ≤ -4.2; 2: ≤ -4.2

// each variant listed below needs its polymerase ribozyme fitness (log ratio)
1. C54U G59U
2. C36A A49C G71U G92A A107G U145C

Result block:
[0.271, "≤ -4.2"]

// each variant listed below needs its polymerase ribozyme fitness (log ratio)
1. G42A U56A C93U
2. C35U C93A A120C G126A A150U
3. A52G G81A G83A A98U
4. C38A G48C G71U
5. A41C G94A U104G A113C C116G

Result block:
≤ -4.2
-4
-1.22
≤ -4.2
≤ -4.2

Query block: What polymerase ribozyme fitness (log ratio) value was documented for this variant, C5A C87U C129A ?
Result block: -3.51
